Field: TGI. Provide a value for each of the molecules that follow.
Tested on: A549 NSCLC
MEASUREMENT_NOTES: NCI tumour cell line growth inhibition, 48 h

[
  {
    "MOLECULE": "O=C(/C=C/c1ccc(C(F)(F)F)cc1)c1ccc(Nc2nc(NCCO)nc(N3CCOCC3)n2)cc1",
    "REPORTED_RESULT": "> 100 µM"
  },
  {
    "MOLECULE": "CCCN(CCC)C(=O)[C@H](CC)[C@@H]1CC[C@@H](C)[C@@H]([C@H](C)[C@@H](O)[C@@H](C)C(=O)[C@H](CC)C2O[C@]3(C=C[C@@H](O)[C@]4(CC[C@@](C)([C@H]5CC[C@](O)(CC)[C@H](C)O5)O4)O3)[C@H](C)C[C@@H]2C)O1 (stereo partly specified)",
    "REPORTED_RESULT": "26.9 µM"
  },
  {
    "MOLECULE": "C=CCN=C1NC(=O)C(CC(=O)Nc2ccc(C)cc2)S1 (stereo unspecified)",
    "REPORTED_RESULT": "> 100 µM"
  }
]

Record TGI for all entries; do not skip any.
1. CCOC(=O)C1=NN(c2ccccc2)C2=CC(C)=NN(C)C(=S)N21
2. COC(=O)/C=C(/C(=O)OC)c1c(C)cc2c(C)cc(C)cc(C)c1-2

Result string:
> 100 µM
> 84.5 µM

This collection of values is drawn from PubChem BioAssay (NCI).
